# SYSTEM_UNDER_TEST: ERα (Homo sapiens, UniProt P03372)
# Construct: endogenous in cells; host or cells: MCF-7
# Sequence (P03372 whole entry): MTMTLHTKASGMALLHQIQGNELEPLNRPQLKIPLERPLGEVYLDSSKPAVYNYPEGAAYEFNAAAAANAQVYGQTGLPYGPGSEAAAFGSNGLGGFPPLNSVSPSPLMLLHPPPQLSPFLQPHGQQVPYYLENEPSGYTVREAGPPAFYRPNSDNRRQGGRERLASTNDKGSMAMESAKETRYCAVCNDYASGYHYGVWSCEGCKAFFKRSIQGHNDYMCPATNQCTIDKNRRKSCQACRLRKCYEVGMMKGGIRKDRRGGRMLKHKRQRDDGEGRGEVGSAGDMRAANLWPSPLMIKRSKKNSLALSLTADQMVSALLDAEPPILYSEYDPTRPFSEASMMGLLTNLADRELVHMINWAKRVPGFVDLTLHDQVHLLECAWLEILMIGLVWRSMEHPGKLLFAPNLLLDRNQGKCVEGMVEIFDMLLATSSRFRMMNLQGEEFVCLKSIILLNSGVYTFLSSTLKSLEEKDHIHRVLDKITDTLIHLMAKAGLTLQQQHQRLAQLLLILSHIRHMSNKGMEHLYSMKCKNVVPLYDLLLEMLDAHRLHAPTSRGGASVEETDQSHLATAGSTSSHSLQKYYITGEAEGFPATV
# RUN_DESCRIPTION: ER degradation in MCF-7 cells (Western blot)
# Format: cell-based
# ASSAY_SETUP: ER degradation, 24 hours
READOUT_TYPE: DC50

Use the examples below as a reference point.
>>> reported("CC/C(=C(\\c1ccc(B(O)O)cc1)c1ccc(N2CCN(CCCC3CCN(c4ccc5c(c4)C(=O)N(C4CCC(=O)NC4=O)C5=O)CC3)CC2)cc1)c1ccccc1 (stereo not drawn) [Compound 55]")
"< 10 nM"
>>> reported("CC/C(=C(/c1ccc(B(O)O)cc1)c1ccc(N2CCC(CNC3CCN(c4ccc5c(c4)CN(C4CCC(=O)NC4=O)C5=O)CC3)CC2)cc1)c1ccccc1 (stereo not drawn) [Compound 12]")
"< 10 nM"

[in] # query: DC50 of entry CC/C(=C(\c1ccc(OCCN2CCC(CN3CCN(c4ccc5c(c4)CN([C@H]4CCC(=O)NC4=O)C5=O)CC3)CC2)cc1)c1ccc(B(O)O)cc1)c1ccccc1 [Compound 75]
[out] < 10 nM
